- Test system: HS 578T breast
- assay.text: NCI-60 one-dose screen, 48 h
- measurement.context: 10 µM unless noted
This is part of a sample that, as a whole, favours compounds with a hit. Of some 83,000 tested, about 20% had one in any assay. The source made the active and inactive calls. The calls were made as follows: active = growth percent below 10; inactive = the rest.
Can you answer with just one of these options? true = active, false = inactive

Before answering, review these 3 worked examples.
molecule: CCCCCN(CCCCC)CC(O)c1ccc(C)c(Cl)c1 (centres undefined)
target: HS 578T breast
category: false
//
molecule: CC(C)CCC[C@@H](C)[C@H]1CC[C@H]2[C@@H]3CC=C4C[C@@H](OC(=O)Cc5ccc(N(CCCl)CCCl)cc5)CC[C@]4(C)[C@H]3CC[C@]12C
target: HS 578T breast
category: false
//
molecule: C[C@]12CCC(=O)CC1CC[C@@H]1C2CC[C@@]2(C)C1CC[C@@H]2OC(=O)CC[Se][Se]CCC(=O)O[C@H]1CCC2[C@@H]3CCC4CC(=O)CC[C@]4(C)C3CC[C@@]21C (some centres undefined)
target: HS 578T breast
category: false

// next entry
Prompt: Please state the recorded outcome for this molecule: [O]=[Sn]([CH]1CCCCC1)[CH]1CCCCC1
Response: true
